assaySystem: F protein of hMPV virus strain A2 (human metapneumovirus (hMPV) A2)
experimentSummary: cell-based or functional assay
Let's look at some binders and their measured EC50 (nM), plaque reduction, hMPV A2 on Vero cells.
Answer with the figure and its unit, nothing else.

Some binders with recorded EC50 (nM), plaque reduction, hMPV A2 on Vero cells:
>>> observedmeasurement("WDEFDKKIEEVNKKIEESLKKIEESDKKLEEVNAEAAAKK (N-terminal acetyl (Ac-); C-terminal lysine side chain carries cholesteryl hemisuccinate, K(Chol); C-terminal amide (-NH2)) [Compound 40]")
"13.8 nM"
>>> observedmeasurement("SLEQVNEKINQSLAFIRKSDEINQSDEEVNKSDELLEAAAKK (N-terminal acetyl (Ac-); C-terminal amide (-NH2)) [Compound 50]")
"13.3 nM"
>>> observedmeasurement("WDEFDKKIEEVNKKIEESLKKIEESDKKLHNVEAAAKK (N-terminal acetyl (Ac-); C-terminal lysine side chain carries cholesteryl hemisuccinate, K(Chol); C-terminal amide (-NH2)) [Compound 44]")
"14.6 nM"
>>> observedmeasurement("FDASIEEVNRRIEESLRRIEESDRRLEEVNAEAAAKK (N-terminal acetyl (Ac-); C-terminal lysine side chain carries cholesteryl hemisuccinate, K(Chol); C-terminal amide (-NH2)) [Compound 42]")
"26.1 nM"
>>> observedmeasurement("WDEFDKKIEEVNKKIEESLKKIEESDKKLEAAAKK (N-terminal acetyl (Ac-); C-terminal lysine side chain carries cholesteryl hemisuccinate, K(Chol); C-terminal amide (-NH2)) [Compound 13]")
"11.7 nM"
>>> observedmeasurement("DEFDKKKIEEVNKKIEESLKKIEESDKKLEEVEAAAKK (N-terminal acetyl (Ac-); C-terminal lysine side chain carries cholesteryl hemisuccinate, K(Chol); C-terminal amide (-NH2)) [Compound 22]")
"88.4 nM"

Problem: Report EC50 (nM), plaque reduction, hMPV A2 on Vero cells for SDEFDKKIEEVNKKIEESLKKIEESDKKLEAAAKK (N-terminal acetyl (Ac-); C-terminal lysine side chain carries cholesteryl hemisuccinate, K(Chol); C-terminal amide (-NH2)) [Compound 16] please.
Solution: 7.35 nM

Problem: Could you do the same for LVKKIDEFDASISQVNEKINQSLEEIRKSDELLHNVGSGSGK (N-terminal acetyl (Ac-); C-terminal lysine side chain carries cholesteryl hemisuccinate, K(Chol); C-terminal amide (-NH2)) [Compound 29] , please?
Solution: 41.6 nM

Problem: Could you do the same for WDEFDKKIEEVNKKIEESLKKIEESDKKLEEVNEAAAKK (N-terminal acetyl (Ac-); C-terminal lysine side chain carries cholesteryl hemisuccinate, K(Chol); C-terminal amide (-NH2)) [Compound 41] , please?
Solution: 11.7 nM

Problem: Could you do the same for DEFDKKIEEVNKKIEESLKKIEESDKKLEEVEAAAKK (N-terminal acetyl (Ac-); C-terminal lysine side chain carries cholesteryl hemisuccinate, K(Chol); C-terminal amide (-NH2)) [Compound 21] , please?
Solution: 11.2 nM

Problem: Could you do the same for DEFDKKIEEVNKKIEESLKKIEESDKKLEAAAKK (N-terminal acetyl (Ac-); C-terminal lysine side chain carries cholesteryl hemisuccinate, K(Chol); C-terminal amide (-NH2)) [Compound 17] , please?
Solution: 8.78 nM
